Just for reference, paper PMC7114187 is where these values come from.

Listing of entries alongside the reported IC50.
- System: influenza viruses
- MEASUREMENT_DESCRIPTION: microbe, parasite or virus in culture
- Format: cell-based, influenza virus
- ASSAY_CONTEXT: unidentified influenza virus, MDCK, 72 h, read-out: CPE inhibition IC50 (<10 μM)
Number only, in µM; omit the unit.

> print(dat)
                                smiles.text  number
1  O=C(O)C1=CC(=C(c2ccc(O)c(C(=O)O)c2)c2ccc(O)c(C(=O)O)c2)C=CC1=O     9.4

Below: the item to evaluate.
Exam item: Fill in reported IC50 for this entry: "CO[C@H]1C[C@H](O[C@H]2CC[C@]3(C)[C@H]4CC[C@]5(C)[C@@H](C6=CC(=O)OC6)CC[C@]5(O)[C@@H]4CC[C@]3(O)C2)O[C@H](C)[C@H]1O"
Marked response: 0.3

====

- Test system: influenza A/WSN/33 (H1N1)
- MEASUREMENT_DESCRIPTION: microbe, parasite or virus in culture
- Format: cell-based
- ASSAY_CONTEXT: read-out: EC50 viral plaque formation
PROPERTY_LABEL: EC50

Exam item: State its EC50: CCC(CC)O[C@@H]1C=C(C(=O)O)C[C@H](N)[C@H]1NC(C)=O [GS4071, Oseltamivir carboxylate]
Marked response: ~40 nM

====

- Tested on: influenza neuraminidase (NA), inactivated viral suspensions of influenza A/Udorn/72 (H3N2)
- Type: biochemical
NA activity inhibition at 50 μM (%) by entry:
Form entry: enter the amount, then its unit.

Below: 3 molecules and their reported NA activity inhibition at 50 μM (%).
MOLECULE	NA activity inhibition at 50 μM (%)
O=C(O[C@@H]1Cc2c(O)cc(O)cc2O[C@@H]1c1cc(O)c(O)c(O)c1-c1c([C@H]2Oc3cc(O)cc(O)c3C[C@H]2OC(=O)c2cc(O)c(O)c(O)c2)cc(O)c(O)c1O)c1cc(O)c(O)c(O)c1 [2′2′-Bisepigallocatechin digallate]	60.6%
CCCc1ncc(C[n+]2ccccc2C)c(N)n1	95.0%
CC1(C)OCC(C2OC(=O)C(O)=C2O)O1 (stereo not drawn) [Ascorbic acid acetonide]	83.5%

Exam item: Fetch value of NA activity inhibition at 50 μM (%) on influenza neuraminidase (NA), inactivated viral suspensions of influenza A/Udorn/72 (H3N2) for CC(=O)N1CCN(c2ccc(OCC3COC(Cn4ccnc4)(c4ccc(Cl)cc4Cl)O3)cc2)CC1 (stereo not drawn) .
Marked response: 72.2%

Exam item: Provide measured NA activity inhibition at 50 μM (%) on influenza neuraminidase (NA), inactivated viral suspensions of influenza A/Udorn/72 (H3N2) for "O=c1c(O)c(-c2cc(O)c(O)c(O)c2)oc2cc(O)cc(O)c12" please.
Marked response: 61.6%

Exam item: Under influenza neuraminidase (NA), inactivated viral suspensions of influenza A/Udorn/72 (H3N2), report NA activity inhibition at 50 μM (%) for CCC(CC)O[C@@H]1C=C(C(=O)O)C[C@H](N)[C@H]1NC(C)=O [GS4071, Oseltamivir carboxylate]
Marked response: 100.0%

Exam item: Enter recorded NA activity inhibition at 50 μM (%) with influenza neuraminidase (NA), inactivated viral suspensions of influenza A/Udorn/72 (H3N2) for S=C=NCc1ccccc1 [Benzyl isothiocyanate] here.
Marked response: 75.5%

Exam item: # return NA activity inhibition at 50 μM (%) of "CC(=O)[C@@]1(O)CC[C@H]2[C@@H]3C=C(Cl)C4=CC(=O)[C@@H]5C[C@@H]5[C@]4(C)[C@H]3CC[C@@]21C" (system: influenza neuraminidase (NA), inactivated viral suspensions of influenza A/Udorn/72 (H3N2))
Marked response: 55.7%

Exam item: Find NA activity inhibition at 50 μM (%) for O=C(O[C@@H]1Cc2c(O)cc(O)cc2O[C@@H]1c1cc(O)c(=O)c2c(O)c(O)cc([C@H]3Oc4cc(O)cc(O)c4C[C@H]3OC(=O)c3cc(O)c(O)c(O)c3)c2c1)c1cc(O)c(O)c(O)c1 [Theaflavin digallate] on influenza neuraminidase (NA), inactivated viral suspensions of influenza A/Udorn/72 (H3N2) and write it down.
Marked response: 61.5%

====

- MEASUREMENT_DESCRIPTION: in vitro
- ASSAY_CONTEXT: dog
PROPERTY_LABEL: CC50

> print(dat)
                                   molecule   result
1  CO[C@H]1C[C@H](O[C@H]2CC[C@]3(C)[C@H]4CC[C@]5(C)[C@@H](C6=CC(=O)OC6)CC[C@]5(O)[C@@H]4CC[C@]3(O)C2)O[C@H](C)[C@H]1O  < 50 µM
2  O=C(O)C1=CC(=C(c2ccc(O)c(C(=O)O)c2)c2ccc(O)c(C(=O)O)c2)C=CC1=O  95.5 µM

Exam item: Please indicate CC50 recorded for CCC(CC)O[C@@H]1C=C(C(=O)O)C[C@H](N)[C@H]1NC(C)=O [GS4071, Oseltamivir carboxylate]
Marked response: > 25 µM

====

- TARGET_OF_ASSAY: NA in inactivated viral suspension of influenza A/Udorn/72 (H3N2) (Influenza A virus (H3N2), UniProt P0DOF6)
- ASSAY_CONTEXT: read-out: IC50 NA inhibition
PROPERTY_LABEL: IC50 (µM)
The reply should be a number in µM, with the unit left off.

Exam item: Answer with reported IC50 of O=C(O)C1=CC(=C(c2ccc(O)c(C(=O)O)c2)c2ccc(O)c(C(=O)O)c2)C=CC1=O [ATA, aurintricarboxylic acid]
Marked response: 13.8
